measurement target: NDM-1 (Klebsiella pneumoniae)
Sequence (C7C422 whole entry, looked up, species assumed): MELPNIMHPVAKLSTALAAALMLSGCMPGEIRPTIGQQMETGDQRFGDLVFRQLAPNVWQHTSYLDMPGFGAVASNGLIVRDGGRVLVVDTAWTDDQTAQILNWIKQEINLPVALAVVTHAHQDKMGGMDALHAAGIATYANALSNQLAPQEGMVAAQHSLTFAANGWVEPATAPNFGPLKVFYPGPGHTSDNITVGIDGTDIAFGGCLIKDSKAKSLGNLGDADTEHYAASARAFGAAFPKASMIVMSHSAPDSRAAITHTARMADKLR
experiment summary: biochemical
Assay type: biochemical
recorded metric: IC50 (nM)
Record the value in nM, omitting the unit from your answer.

| molecule | units symbol | IC50 |
| --- | --- | --- |
| NS(=O)(=O)c1c(C(F)(F)F)ccc([C@H]2CC[C@H](C3=NCCN3)CC2)c1-c1nnn[nH]1 | nM | 2.22 |
| N=C(N)NC[C@H]1CC[C@H](c2ccc(C(F)(F)F)c(S(N)(=O)=O)c2-c2nnn[nH]2)CC1 | nM | 1.14 |
| N=C(N)NC[C@H]1CC[C@@H](c2ccc(C(F)(F)F)c(S(N)(=O)=O)c2-c2nnn[nH]2)CC1 | nM | 0.52 |

Switching to the query record.
For the compound shown here, Nc1ccc(CN[C@H]2CC[C@H](c3ccc(C(F)(F)F)c(S(N)(=O)=O)c3-c3nnn[nH]3)CC2)cn1 , give the reported IC50.
4.12
